System: NF-κB p65
Test: Transcription factor ELISA, NF-κB p65 binding to DNA
Assay type: cell-based
Conditions: DLD-1 cells (context); 1, 4 at 1 μM; 2, 8 at 5 μM; vs control
Measurement kind: reduction of the binding of the p65 subunit to DNA (%)

{"Smiles record": "COc1cc(C(=O)/C=C/c2cccc(SC)c2)cc(Br)c1OC", "Unit descriptor": "%", "Recorded measurement": 21}
{"Smiles record": "COc1cc(/C=C/C(=O)c2cc(Br)c(OC)c(OC)c2)ccc1SC", "Unit descriptor": "%", "Recorded measurement": 24}
{"Smiles record": "COc1ccc(/C=C/C(=O)c2cc(OC)c(OC)c(OC)c2)cc1SC", "Unit descriptor": "%", "Recorded measurement": 21}
{"Smiles record": "COc1ccc(/C=C/C(=O)c2cc(OC)c(SC)c(OC)c2)cc1SC", "Unit descriptor": "%", "Recorded measurement": 38}

----------
Assay: MTT viability assay, normal HaCaT cells
Format: cell-based
Details: HaCaT cells (spontaneously immortalized keratinocytes), normal human HaCaT cells, read-out: IC50, cytotoxicity
Description: The DLD-1 and HCT116 colorectal carcinoma cell lines were purchased from ECACC. The HaCaT cell line of spontaneously immortalized keratinocytes was purchased from Cell Lines Service (Germany). […] The effect of the tested compounds on the viability of DLD-1, HCT116 and HaCaT cells was assessed by the MTT assay according to the standard protocol.
pIC50: −log10 of the molar value.
Label yes when pIC50 >= 5; otherwise no.

{"Smiles record": "COc1cc(C(=O)/C=C/c2ccc(SC)cc2)cc(Br)c1SC", "Class label": "no"}
{"Smiles record": "COc1ccc(/C=C/C(=O)c2cc(OC)c(SC)c(OC)c2)cc1SC", "Class label": "no"}
{"Smiles record": "COc1ccc(/C=C/C(=O)c2cc(OC)c(OC)c(OC)c2)cc1SC", "Class label": "yes"}
{"Smiles record": "COc1cc(C(=O)/C=C/c2cccc(SC)c2)cc(Br)c1OC", "Class label": "yes"}
{"Smiles record": "COc1cc(/C=C/C(=O)c2cc(Br)c(SC)c(OC)c2)ccc1SC", "Class label": "no"}

----------
Tested on: DLD-1 cells
Experiment: MTT viability assay, DLD-1 cells
Assay type: cell-based
Settings: Homo sapiens, range 0.5–100 µM, read-out: IC50, cytotoxicity
This section presents compounds with their documented log10 of IC50 values.
Measurement kind: log10 of IC50 (log10 of the value in µM)

{"Smiles record": "COc1cc(/C=C/C(=O)c2cc(Br)c(SC)c(OC)c2)ccc1SC", "Measurement kind": "log10 of IC50", "Recorded measurement": 1.04}
{"Smiles record": "COc1ccc(/C=C/C(=O)c2cc(OC)c(OC)c(OC)c2)cc1SC", "Measurement kind": "log10 of IC50", "Recorded measurement": 0.48}
{"Smiles record": "COc1ccc(/C=C/C(=O)c2cc(Br)c(OC)c(OC)c2)cc1SC", "Measurement kind": "log10 of IC50", "Recorded measurement": 0.90}
{"Smiles record": "COc1cc(C(=O)/C=C/c2cccc(SC)c2)cc(Br)c1OC", "Measurement kind": "log10 of IC50", "Recorded measurement": 0.30}
{"Smiles record": "COc1ccc(/C=C/C(=O)c2cc(OC)c(SC)c(OC)c2)cc1SC", "Measurement kind": "log10 of IC50", "Recorded measurement": 0.95}
{"Smiles record": "COc1cc(/C=C/C(=O)c2cc(Br)c(OC)c(OC)c2)ccc1SC", "Measurement kind": "log10 of IC50", "Recorded measurement": 1.04}
{"Smiles record": "COc1cc(C(=O)/C=C/c2ccc(SC)cc2)cc(Br)c1SC", "Measurement kind": "log10 of IC50", "Recorded measurement": 1.63}
{"Smiles record": "COc1ccc(/C=C/C(=O)c2cc(Br)c(SC)c(OC)c2)cc1SC", "Measurement kind": "log10 of IC50", "Recorded measurement": 1.08}

----------
Assay: MTT viability assay, normal HaCaT cells
Format: cell-based
Conditions: HaCaT cells (spontaneously immortalized keratinocytes), normal human HaCaT cells, read-out: IC50, cytotoxicity
# IC50 per entry

{"Compound": "COc1ccc(/C=C/C(=O)c2cc(Br)c(OC)c(OC)c2)cc1SC [chalcone 3]", "IC50": "9 µM"}
{"Compound": "COc1cc(/C=C/C(=O)c2cc(Br)c(OC)c(OC)c2)ccc1SC [chalcone 2]", "IC50": "13 µM"}
{"Compound": "COc1ccc(/C=C/C(=O)c2cc(Br)c(SC)c(OC)c2)cc1SC [chalcone 6]", "IC50": "13 µM"}
